Known Ki of a selection of compounds
test.target: GT1a D168A NS3/4A protease (UniProt P27958, C1185S/D1194A, species not given)
Construct: P4/P4-P5 modified macrocycles
Assay type: biochemical, Hepatitis C virus
run.conditions: read-out: Ki (nM) D168A; Table 6; P4/P4-P5 modified macrocycles

Here are 3 compounds together with their reported answers.
[[record]]
compound = "COc1ccc2nc(C)c(O[C@@H]3C[C@H]4C(=O)N[C@]5(C(=O)NS(=O)(=O)C6(C)CC6)C[C@H]5/C=C\\CCCCC[C@H](NC(=O)OC(C)(C)C)C(=O)N4C3)nc2c1 [Compound 19b]"
obs_value = "52 nM"

[[record]]
compound = "COC(=O)N[C@H](C(=O)N[C@H]1CCCCC/C=C\\[C@@H]2C[C@@]2(C(=O)NS(=O)(=O)C2(C)CC2)NC(=O)[C@@H]2C[C@@H](Oc3nc4cc(OC)ccc4nc3C)CN2C1=O)C(C)(C)C"
obs_value = "201 nM"

[[record]]
compound = "COc1ccc2nc(C)c(O[C@@H]3C[C@H]4C(=O)N[C@]5(C(=O)NS(=O)(=O)C6(C)CC6)C[C@H]5/C=C\\CCCCC[C@H](NC(=O)OC5(C)CCCC5)C(=O)N4C3)nc2c1"
obs_value = "16 nM"


Turning now to a further record.
Report Ki for COC(=O)N[C@H](C(=O)N[C@H]1CCCCC/C=C\[C@@H]2C[C@@]2(C(=O)NS(=O)(=O)C2(C)CC2)NC(=O)[C@@H]2C[C@@H](Oc3nc4cc(OC)ccc4nc3C)CN2C1=O)C(C)C tested on GT1a D168A NS3/4A protease (UniProt P27958, C1185S/D1194A, species not given).
102 nM
